system: Staphylococcus aureus; assay: Antimicrobial activity against Staphylococcus aureus after overnight incubation by broth dilution method; type: functional
observation type: log10 of MIC (log10 of the value in µg/mL)

1) O=C(c1ccc(-n2c(-c3ccccc3)nc3ccccc3c2=O)cc1)[n+]1nc([S-])sc1-c1ccc([N+](=O)[O-])cc1 ... 0.90
2) Cc1sc([S-])n[n+]1C(=O)c1ccc(Nc2nc(-c3ccccc3)nc3ccccc23)cc1 ... 1.20
3) O=C(c1ccc(-n2c(-c3ccccc3)nc3ccccc3c2=O)cc1)[n+]1nc([S-])sc1-c1cc([N+](=O)[O-])ccc1Cl ... 0.30
4) Cc1sc([S-])n[n+]1C(=O)c1ccc(-n2c(-c3ccccc3)nc3ccccc3c2=O)cc1 ... 0.00
5) COc1ccc(-c2sc([S-])n[n+]2C(=O)c2ccc(Nc3nc(-c4ccccc4)nc4ccccc34)cc2)cc1[N+](=O)[O-] ... 0.90
6) O=C(c1ccc(Nc2nc(-c3ccccc3)nc3ccccc23)cc1)[n+]1nc([S-])sc1-c1cc([N+](=O)[O-])ccc1Cl ... 0.60
7) COc1ccc(-c2sc([S-])n[n+]2C(=O)c2ccc(-n3c(-c4ccccc4)nc4ccccc4c3=O)cc2)cc1[N+](=O)[O-] ... 1.20
8) O=C(c1ccc(-n2c(-c3ccccc3)nc3ccccc3c2=O)cc1)[n+]1nc([S-])sc1-c1ccc(Cl)cc1 ... 0.90
9) O=C(c1ccc(Nc2nc(-c3ccccc3)nc3ccccc23)cc1)[n+]1nc([S-])sc1-c1ccccc1 ... 1.20
10) O=C(c1ccc(Nc2nc(-c3ccccc3)nc3ccccc23)cc1)[n+]1nc([S-])sc1-c1ccc(Cl)cc1 ... 1.20
11) O=C(c1ccc(-n2c(-c3ccccc3)nc3ccccc3c2=O)cc1)[n+]1nc([S-])sc1-c1cccc([N+](=O)[O-])c1 ... 1.81
12) O=C(c1ccc(Nc2nc(-c3ccccc3)nc3ccccc23)cc1)[n+]1nc([S-])sc1-c1cccc([N+](=O)[O-])c1 ... 0.90
13) O=C(O)c1cn(C2CC2)c2cc(N3CCNCC3)c(F)cc2c1=O ... 0.00

----------
We begin with a simple list: items and their reported zone of inhibition at 200 µg/mL.
tested on: Pseudomonas aeruginosa; test: Antimicrobial activity against Pseudomonas aeruginosa at 200 ug/ml after 48 hr by cup-plate method; assay type: functional; settings: read-out: IZ
observation type: zone of inhibition at 200 µg/mL (mm)

1) O=C(c1ccc(Nc2nc(-c3ccccc3)nc3ccccc23)cc1)[n+]1nc([S-])sc1-c1ccc(Cl)c([N+](=O)[O-])c1 ... 22
2) O=C(c1ccc(-n2c(-c3ccccc3)nc3ccccc3c2=O)cc1)[n+]1nc([S-])sc1-c1ccc([N+](=O)[O-])cc1 ... 22
3) O=C(c1ccc(Nc2nc(-c3ccccc3)nc3ccccc23)cc1)[n+]1nc([S-])sc1-c1cc([N+](=O)[O-])ccc1Cl ... 26
4) O=C(c1ccc(-n2c(-c3ccccc3)nc3ccccc3c2=O)cc1)[n+]1nc([S-])sc1-c1cccc([N+](=O)[O-])c1 ... 10
5) O=C(c1ccc(Nc2nc(-c3ccccc3)nc3ccccc23)cc1)[n+]1nc([S-])sc1-c1ccccc1 ... 24
6) Cc1sc([S-])n[n+]1C(=O)c1ccc(-n2c(-c3ccccc3)nc3ccccc3c2=O)cc1 ... 18
7) O=C(c1ccc(-n2c(-c3ccccc3)nc3ccccc3c2=O)cc1)[n+]1nc([S-])sc1-c1ccc(Cl)c([N+](=O)[O-])c1 ... 24
8) O=C(c1ccc(-n2c(-c3ccccc3)nc3ccccc3c2=O)cc1)[n+]1nc([S-])sc1-c1ccccc1 ... 22
9) O=C(c1ccc(Nc2nc(-c3ccccc3)nc3ccccc23)cc1)[n+]1nc([S-])sc1-c1ccc([N+](=O)[O-])cc1 ... 15
10) COc1ccc(-c2sc([S-])n[n+]2C(=O)c2ccc(Nc3nc(-c4ccccc4)nc4ccccc34)cc2)cc1[N+](=O)[O-] ... 22
11) O=C(O)c1cn(C2CC2)c2cc(N3CCNCC3)c(F)cc2c1=O ... 41
12) O=C(c1ccc(Nc2nc(-c3ccccc3)nc3ccccc23)cc1)[n+]1nc([S-])sc1-c1ccc(Cl)cc1 ... 24
13) COc1ccc(-c2sc([S-])n[n+]2C(=O)c2ccc(-n3c(-c4ccccc4)nc4ccccc4c3=O)cc2)cc1[N+](=O)[O-] ... 27
14) O=C(c1ccc(Nc2nc(-c3ccccc3)nc3ccccc23)cc1)[n+]1nc([S-])sc1-c1cccc([N+](=O)[O-])c1 ... 22
15) O=C(c1ccc(-n2c(-c3ccccc3)nc3ccccc3c2=O)cc1)[n+]1nc([S-])sc1-c1ccc(Cl)cc1 ... 21
16) Cc1sc([S-])n[n+]1C(=O)c1ccc(Nc2nc(-c3ccccc3)nc3ccccc23)cc1 ... 23
17) O=C(c1ccc(-n2c(-c3ccccc3)nc3ccccc3c2=O)cc1)[n+]1nc([S-])sc1-c1cc([N+](=O)[O-])ccc1Cl ... 22
